Target: ARHGEF12, Q9NZN5-2
Sequence (Q9NZN5 other isoform, or with tags, fused parts or gaps): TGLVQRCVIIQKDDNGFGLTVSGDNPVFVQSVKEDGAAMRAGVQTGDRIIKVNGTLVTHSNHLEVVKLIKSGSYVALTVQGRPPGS
Assay: holdup assay
Parameters: key: below the threshold = too weak to quantify, mostly under pKd 3.1 to 4
Conditions: plain residues with an end cap or a label only (N-terminal biotin on a linker: ado-ado)
The entries below come with measured pKd values attached.
PROPERTY_NAME: pKd

{"BINDER": "EVNETDDTKM [KCNJ1, P48048]", "PROPERTY_NAME": "pKd", "NUMERIC_READOUT": 3.75}
{"BINDER": "VDSTVKVWTC [TRAF7, Q6Q0C0]", "PROPERTY_NAME": "pKd", "NUMERIC_READOUT": 3.5}
{"BINDER": "LGRSTPQSEV [DGKH, Q86XP1]", "PROPERTY_NAME": "pKd", "NUMERIC_READOUT": 4.18}
